Target: Pdr3 (UniProt P33200)
Sequence: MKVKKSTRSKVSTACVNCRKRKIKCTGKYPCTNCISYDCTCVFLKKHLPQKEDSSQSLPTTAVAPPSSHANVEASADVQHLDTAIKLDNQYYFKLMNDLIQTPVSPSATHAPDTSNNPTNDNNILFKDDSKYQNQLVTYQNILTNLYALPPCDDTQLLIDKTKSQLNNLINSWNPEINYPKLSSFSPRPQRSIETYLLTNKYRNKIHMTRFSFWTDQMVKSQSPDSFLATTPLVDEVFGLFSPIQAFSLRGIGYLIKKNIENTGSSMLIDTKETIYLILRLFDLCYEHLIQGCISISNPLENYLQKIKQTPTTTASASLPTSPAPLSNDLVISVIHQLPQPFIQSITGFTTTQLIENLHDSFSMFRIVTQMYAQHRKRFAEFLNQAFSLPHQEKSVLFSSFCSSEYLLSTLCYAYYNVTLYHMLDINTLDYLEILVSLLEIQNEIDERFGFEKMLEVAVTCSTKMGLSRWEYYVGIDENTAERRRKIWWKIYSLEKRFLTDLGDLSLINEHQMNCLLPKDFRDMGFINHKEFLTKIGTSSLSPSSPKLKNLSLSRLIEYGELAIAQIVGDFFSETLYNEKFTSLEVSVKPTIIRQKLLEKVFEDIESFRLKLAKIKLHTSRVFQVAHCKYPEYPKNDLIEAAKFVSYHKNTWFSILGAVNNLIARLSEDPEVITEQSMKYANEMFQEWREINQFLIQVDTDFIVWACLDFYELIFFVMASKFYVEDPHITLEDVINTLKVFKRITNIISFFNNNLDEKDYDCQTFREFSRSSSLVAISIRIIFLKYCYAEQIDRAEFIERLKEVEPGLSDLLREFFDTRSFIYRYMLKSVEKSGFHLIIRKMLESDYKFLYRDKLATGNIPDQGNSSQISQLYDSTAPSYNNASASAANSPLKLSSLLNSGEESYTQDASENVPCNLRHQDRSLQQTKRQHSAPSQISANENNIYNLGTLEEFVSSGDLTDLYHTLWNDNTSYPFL
Assay: PBM E-score (8-mer binding enrichment) (E-score (-0.5 to 0.5)); higher = stronger / more preferred TF binding
Settings: protein concentration: 200 nM; construct: GST-full length
The full ranking holds about 33,000 sequences; the median of “E-score (-0.5 to 0.5)” is about -0.035, and the highest 2% start at about 0.35. The sample holds the highest values, similar sequences and a random draw of the others, so the mix is not that of the screen.
property: PBM E-score

INSERT INTO assay_data (sequence, test_target, value_reported) VALUES
  ('AGTGGCGC', 'Pdr3 (UniProt P33200)', 0.153),
  ('CAGATCCG', 'Pdr3 (UniProt P33200)', 0.314),
  ('CTCCGGCA', 'Pdr3 (UniProt P33200)', 0.34),
  ('CCGGTCCG', 'Pdr3 (UniProt P33200)', 0.414),
  ('ATTAAGAG', 'Pdr3 (UniProt P33200)', -0.0729),
  ('AGGATCCG', 'Pdr3 (UniProt P33200)', 0.301),
  ('ACTAAACT', 'Pdr3 (UniProt P33200)', -0.121),
  ('GTGGATAA', 'Pdr3 (UniProt P33200)', 0.0146),
  ('CGGATCGC', 'Pdr3 (UniProt P33200)', 0.279),
  ('CGGATCCG', 'Pdr3 (UniProt P33200)', 0.489),
  ('AAGCCGGC', 'Pdr3 (UniProt P33200)', 0.366),
  ('GACCAATA', 'Pdr3 (UniProt P33200)', -0.0553),
  ('AAAAATGG', 'Pdr3 (UniProt P33200)', 0.0817),
  ('TGGATCCA', 'Pdr3 (UniProt P33200)', 0.096),
  ('AAGCCGGG', 'Pdr3 (UniProt P33200)', 0.262),
  ('CCTACTCG', 'Pdr3 (UniProt P33200)', 0.101);

----------
Target: Pdr3 (UniProt P33200)
Sequence: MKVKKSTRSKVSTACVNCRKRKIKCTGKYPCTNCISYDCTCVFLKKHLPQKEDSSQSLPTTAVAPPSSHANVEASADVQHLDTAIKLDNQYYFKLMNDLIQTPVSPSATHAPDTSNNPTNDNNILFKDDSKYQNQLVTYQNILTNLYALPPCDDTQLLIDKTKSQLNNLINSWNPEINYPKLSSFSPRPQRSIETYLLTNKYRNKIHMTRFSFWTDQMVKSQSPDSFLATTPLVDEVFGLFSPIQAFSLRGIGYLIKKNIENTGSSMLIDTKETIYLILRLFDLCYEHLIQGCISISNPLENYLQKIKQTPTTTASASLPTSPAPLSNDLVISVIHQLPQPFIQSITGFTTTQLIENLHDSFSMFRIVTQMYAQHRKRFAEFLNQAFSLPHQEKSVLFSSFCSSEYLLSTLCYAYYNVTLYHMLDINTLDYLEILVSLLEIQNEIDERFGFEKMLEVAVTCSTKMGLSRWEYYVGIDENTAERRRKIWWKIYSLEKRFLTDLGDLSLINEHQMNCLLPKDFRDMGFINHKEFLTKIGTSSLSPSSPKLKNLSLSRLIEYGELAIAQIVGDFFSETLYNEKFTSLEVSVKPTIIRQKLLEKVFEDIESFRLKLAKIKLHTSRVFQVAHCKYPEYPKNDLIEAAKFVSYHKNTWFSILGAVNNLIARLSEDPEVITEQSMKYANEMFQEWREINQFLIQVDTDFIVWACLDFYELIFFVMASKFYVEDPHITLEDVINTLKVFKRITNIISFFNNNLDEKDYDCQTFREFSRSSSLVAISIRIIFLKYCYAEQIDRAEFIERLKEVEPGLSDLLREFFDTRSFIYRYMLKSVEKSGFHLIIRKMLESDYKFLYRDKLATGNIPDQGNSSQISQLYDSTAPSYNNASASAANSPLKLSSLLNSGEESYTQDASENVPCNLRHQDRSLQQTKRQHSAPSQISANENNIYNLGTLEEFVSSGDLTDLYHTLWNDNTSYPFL
Assay: PBM E-score (8-mer binding enrichment) (E-score (-0.5 to 0.5)); higher = stronger / more preferred TF binding
Conditions: protein concentration: 200 nM; construct: GST-full length
Over roughly 33,000 sequences, “E-score (-0.5 to 0.5)” has its median near -0.035; the highest 2% begin near 0.35. What follows is part of a selection rich in the highest values, with near analogues and random picks from the rest.
property: PBM E-score

INSERT INTO assay_data (sequence, value_reported) VALUES
  ('AATCCGTC', 0.314),
  ('AAGGCTTG', -0.0886),
  ('GTAACGCA', 0.0163);

----------
Target: Pdr3 (UniProt P33200)
Sequence: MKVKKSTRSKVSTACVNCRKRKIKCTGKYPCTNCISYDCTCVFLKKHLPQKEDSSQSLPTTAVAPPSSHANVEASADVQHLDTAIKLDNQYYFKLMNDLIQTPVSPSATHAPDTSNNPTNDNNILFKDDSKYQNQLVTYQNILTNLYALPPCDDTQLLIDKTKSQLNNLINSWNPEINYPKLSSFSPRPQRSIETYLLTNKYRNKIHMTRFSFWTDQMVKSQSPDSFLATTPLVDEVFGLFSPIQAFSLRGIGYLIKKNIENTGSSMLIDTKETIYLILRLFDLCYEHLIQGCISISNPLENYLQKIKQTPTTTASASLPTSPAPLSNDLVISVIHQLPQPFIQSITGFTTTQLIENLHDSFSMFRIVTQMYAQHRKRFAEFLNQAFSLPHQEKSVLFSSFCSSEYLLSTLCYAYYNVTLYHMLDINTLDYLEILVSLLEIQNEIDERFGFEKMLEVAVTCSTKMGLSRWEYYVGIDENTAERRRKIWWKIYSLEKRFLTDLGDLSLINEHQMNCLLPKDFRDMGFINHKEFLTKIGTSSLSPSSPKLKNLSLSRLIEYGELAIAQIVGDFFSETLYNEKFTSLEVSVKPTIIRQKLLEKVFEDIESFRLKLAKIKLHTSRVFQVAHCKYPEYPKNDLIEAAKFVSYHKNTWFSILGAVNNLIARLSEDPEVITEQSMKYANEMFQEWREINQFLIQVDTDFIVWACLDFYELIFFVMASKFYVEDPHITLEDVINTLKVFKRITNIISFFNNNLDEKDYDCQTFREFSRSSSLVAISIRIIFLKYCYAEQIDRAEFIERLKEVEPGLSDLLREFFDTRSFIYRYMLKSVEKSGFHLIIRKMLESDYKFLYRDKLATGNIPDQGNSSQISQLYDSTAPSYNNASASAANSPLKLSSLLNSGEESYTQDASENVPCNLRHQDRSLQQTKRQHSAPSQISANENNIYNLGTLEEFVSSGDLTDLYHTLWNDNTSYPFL
Test: PBM E-score (8-mer binding enrichment) (E-score (-0.5 to 0.5)); higher = stronger / more preferred TF binding
Conditions: protein concentration: 200 nM; construct: GST-full length
In all, about 33,000 sequences were measured (“E-score (-0.5 to 0.5)”: median about -0.035, highest 2% from about 0.35 on). This excerpt belongs to a sample that is enriched for the highest values.
Decision: PBM E-score >= -0.004 yields t, all other cases yield f.

INSERT INTO measurements (sequence, category) VALUES
  ('CCGGAGTC', 't'),
  ('CCGGAGGC', 't'),
  ('TCACGAAA', 't'),
  ('CACGTGGA', 'f'),
  ('GCCTGCCC', 'f'),
  ('ACCGCGGT', 't'),
  ('CACCCAAG', 'f'),
  ('AAAAGATC', 'f'),
  ('ACCGCGAT', 't'),
  ('ACCGCGAG', 't'),
  ('GGGGGAGA', 'f'),
  ('AATCCCGC', 't'),
  ('ACGGGATC', 't'),
  ('AGATCGTA', 'f'),
  ('ACCTGGCC', 't'),
  ('ATCGCGGC', 't'),
  ('ATAATACA', 't'),
  ('CGCCTCCG', 't'),
  ('GTCATCCA', 'f'),
  ('CTGGGATA', 't'),
  ('CCGGGATA', 't'),
  ('CCCCACGA', 'f'),
  ('ACCGCGTA', 't'),
  ('CCACCACC', 'f'),
  ('CGGTCGAG', 'f'),
  ('ACGGGATG', 't'),
  ('ACTAGAAA', 'f'),
  ('ACAAAGTA', 'f');
